# Tested on: P388
# ASSAY_COMMENT: Compound was tested for its cytotoxicity against P388 cell line
# Format: functional, cell-based
# ASSAY_CONDITIONS: Mus musculus
Provide the recorded pIC50 for the entries that follow.
One number for each entry, as −log10 of the molar value.

C[C@H](Cc1cc(C(=O)O)co1)[C@]1(C)CC=C2C3=CCC4C(C)(C)[C@H](O)CC[C@]4(C)[C@@H]3CC[C@]21C (some centres not stated) | 4.30

Here is another compound to look at.
Prompt line: Consider the compound shown here: C[C@H](CC(=O)O)[C@]1(C)CC=C2C3=CCC4C(C)(C)[C@H](O)CC[C@]4(C)[C@@H]3CC[C@]21C (some centres not stated) What is its recorded pIC50?
Response line: 4.26
